Each entry below lists one item and its recorded INHIBITION value.
tested on: Plasmodium berghei; experiment: Screen against P. berghei liver stage (PbLuc), transformed with Luciferase, at 10uM; type: functional, HepG2; details: tested at 10 uM
In all, about 69,000 compounds went through this assay and about 8,600 (12%) showed an effect of 50% or more. This is one part of a sample in which strong results are shown more often than they occur.
Provide only the numeric value, understood in %.

MOLECULE: O=c1cc(CNS(=O)(=O)C2CC2)nc2n1CCCN(CC1CC1)C2
UNIT SYMBOL: %
INHIBITION: 33.1
--
MOLECULE: CC(c1cccc(-c2ncc(C#N)c(N)n2)c1)N(C)C (configuration not stated)
UNIT SYMBOL: %
INHIBITION: -0.996
--
MOLECULE: Cn1cc(C2=NOC(C(=O)NC3(c4ccccc4)CCCC3)C2)cn1 (configuration not stated)
UNIT SYMBOL: %
INHIBITION: -6.975

Requested read-out INHIBITION, target or system Plasmodium berghei, entry CC(C)c1ccc(C(N)c2cccs2)cc1 (configuration not stated)
75.6

Requested read-out INHIBITION, target or system Plasmodium berghei, entry CCCc1n[nH]c(C2CN(C(=O)c3ccc[nH]3)CCO2)n1 (configuration not stated)
27.8

Requested read-out INHIBITION, target or system Plasmodium berghei, entry Cc1n[nH]c(C2CN(C(=O)CCc3cscn3)CCO2)n1 (configuration not stated)
40.75

Requested read-out INHIBITION, target or system Plasmodium berghei, entry `CC(C)NC(=O)Nc1nc2c(s1)CN(C(=O)NCc1cccs1)CC2`
46.4

---

test system: Plasmodium berghei; test: Screen against P. berghei liver stage (PbLuc), transformed with Luciferase, at 10uM; assay type: functional, HepG2; conditions: tested at 10 uM
Among all 69,000 compounds or so, about 8,600 (12%) showed an effect of 50% or more. The full list was thinned out, with strong results kept by preference.
Each entry below lists one item and its recorded INHIBITION value.
Provide only the numeric value, understood in %.

Known INHIBITION results, listed for orientation:
COMPOUND: c1ccc(OCCCN2CCOC(CNc3cccnn3)C2)cc1 (configuration not stated)
UNIT SYMBOL: %
INHIBITION: -65.3
//
COMPOUND: O=C(CCn1cc(Cl)cn1)N1C[C@H]2CC[C@@H](C1)N(Cc1ccccn1)C2
UNIT SYMBOL: %
INHIBITION: -29.1
//
COMPOUND: CC(C)c1noc(CCC(=O)NCC2CC2)n1
UNIT SYMBOL: %
INHIBITION: 38.5
//
COMPOUND: CC(Cc1ccco1)NC(=O)Nc1cccnc1 (configuration not stated)
UNIT SYMBOL: %
INHIBITION: -10.1
//
COMPOUND: COCCN(C)C[C@@H]1CN(C(=O)c2ccc(C)c(Cl)c2)C[C@@H]1CO
UNIT SYMBOL: %
INHIBITION: 13.1

Next item in the queue.
Requested read-out INHIBITION, target or system Plasmodium berghei, entry Cc1cc(CN2CCN(C(C)C)C(CCO)C2)[nH]n1 (configuration not stated)
15.5

---

tested on: Plasmodium berghei; assay: Screen against P. berghei liver stage (PbLuc), transformed with Luciferase, at 10uM; type: functional, HepG2; settings: tested at 10 uM
Hit rate of the full screen: of about 69,000 compounds, about 8,600 (12%) showed an effect of 50% or more. The sample as a whole holds a higher share of strong results than the screen did.
Tag: condition met if measured INHIBITION is not below 30%, condition not met if it is.

Field: example entries. Status: answers known.
COMPOUND: CCn1ccnc1CN1CCN(CCC(=O)NC2CCCCC2)CC1
ASSIGNED CATEGORY: condition not met
--
COMPOUND: CCC1(C)Cc2ccccc2-c2nc(NCCO)nc(O)c21 (stereo unspecified)
ASSIGNED CATEGORY: condition not met
--
COMPOUND: CN(C)[C@H]1CCCCN(Cc2cnc(NCc3ccccc3)nc2)C1
ASSIGNED CATEGORY: condition met
--
COMPOUND: CCC1(CC)Cc2ccccc2-c2nc(NCCCO)[nH]c(=O)c21
ASSIGNED CATEGORY: condition met

We next turn to a different compound, shown below.
Does the compound `O=c1c(NCCOCCO)c(N2CCN(c3ccccc3)CC2)c1=O` have recorded INHIBITION that is 30% or more?
condition not met
